meta.source: patent US20180147183A1

experiment: Pharmacokinetics and bioavailability in dogs, plasma determined by LC-MS; assay type: in vivo, dog; settings: dog, plasma, Time 24 h; individual dogs, one table per dog; read-out: Concentration in dog blood C
assay endpoint: concentration at 24 h (ng/mL)
Provide only the numeric value, understood in ng/mL.

# input Tell us which concentration at 24 h value is on record for NC(=O)CN1C[C@H](O)CC1=O
# output 0

----------
assay: Pharmacokinetics and bioavailability in dogs, plasma determined by LC-MS; type: in vivo, dog; conditions: dog, plasma; dogs, mean ± SD
assay endpoint: Tmax (h)
API: value field is a number in h; no unit string.

# input Entry NC(=O)CN1C[C@H](O)CC1=O needs its Tmax filled in; supply it.
# output 2.04

----------
experiment: Pharmacokinetics and bioavailability in dogs, plasma determined by LC-MS; format: in vivo, dog; conditions: dog, plasma, Time 1.5 h; individual dogs, one table per dog; read-out: Concentration in dog blood C
assay endpoint: concentration at 1.5 h (µg/mL)
Use µg/mL as the unit, but write only the number.

# input In one line, give reported concentration at 1.5 h of the entry NC(=O)CN1CC(O)CC1=O (racemic) [oxiracetam] .
# output 148

----------
test: Pharmacokinetics and bioavailability in dogs, plasma determined by LC-MS; assay type: in vivo, dog; conditions: dog, plasma; dogs, with oxiracetam as a reference; read-out: relative bioavailability
assay endpoint: bioavailability
Answer as a quantity: numeral, then unit.

# input Please supply the value of reported bioavailability for the item NC(=O)CN1C[C@H](O)CC1=O [R-oxiracetam]
# output 112%

----------
assay: Pharmacokinetics and bioavailability in dogs, plasma determined by LC-MS; type: in vivo, dog; details: dog, plasma, Time 0 h; individual dogs, one table per dog; read-out: Concentration in dog blood C
assay endpoint: concentration at 0 h (ng/mL)
Give the value in ng/mL but do not write ng/mL after it.

# input For the compound NC(=O)CN1CC(O)CC1=O (racemic) , give its measured concentration at 0 h value.
# output 0

# input Fill in reported concentration at 0 h for this entry: NC(=O)CN1C[C@H](O)CC1=O
# output 0
